The measurements presented in this section are drawn from patent US20220265618A1.

Test system: 22Rv1 cells
assay_details: Proliferation assay (Cell Titer-Glo), 22Rv1 cells
Format: cell-based
recorded_conditions: Homo sapiens, 22Rv1, 72 h; 3 days (FIG. 6); read-out: IC50, proliferation of 22RV.1 cells
quantity_name: pIC50
One number for each entry, as −log10 of the molar value.

Query: Suppose we examine the compound Cn1cc(-c2cc(S(C)(=O)=O)ccc2OCC2CC2)c2ccccc2c1=O ; what pIC50 value has been reported?
Result: 6.70

----------
Tested on: LNCaP_AR CRISPRi guide TP53/RB1 cells
assay_details: Proliferation assay (Cell Titer-Glo), LNCaP_AR CRISPRi TP53/RB1 cells
Type: cell-based, human
recorded_conditions: Homo sapiens, LNCaP/AR; treated Day 0 and Day 6, total 14 days (FIG. 8A)
quantity_name: IC50 (nM)
Answers are plain numbers, in nM.

Query: Return IC50 measured with LNCaP_AR CRISPRi guide TP53/RB1 cells given this compound: Cn1cc(-c2cc(S(C)(=O)=O)ccc2OCC2CC2)c2ccccc2c1=O
Result: 220
